system: Factor Xa
protocol: selectivity inhibition assay
pKi: −log10 of the molar value. *: point of attachment. kbt‑6‑CONH‑4‑piperidine = ketobenzothiazole-6-CONH-4-piperidine (Kbt-4-piperidinylamide), O=C(NC1CCNCC1)c1ccc2nc(*)sc2c1; kbt‑6‑CONH‑4‑pyridine = ketobenzothiazole-6-CONH-4-pyridine (Kbt-4-pyridinylamide), O=C(Nc1ccncc1)c1ccc2nc(*)sc2c1; kbt = C-terminal ketobenzothiazole, c1ccc2sc(*)nc2c1; Kbt = ketobenzothiazole, c1ccc2sc(*)nc2c1
pKi vs 7: at or above is Criterion met, below is Criterion not met.

binder	answer label
Ac-SKLR-{kbt‑6‑CONH‑4‑pyridine} [Ac-SKLR(SEQ ID NO: 10)-Kbt-4-pyridinylamide]	Criterion not met
Ac-SKLR-{kbt‑6‑CO-Val-NH2} [Ac-SKLR(SEQ ID NO: 10)-Kbt-Val-NH2]	Criterion not met
Ac-SKLR-{kbt‑6‑CONH‑4‑piperidine} [Ac-SKLR(SEQ ID NO: 10)-Kbt-4-piperidinylamide]	Criterion not met
Ac-SKLR-kbt (SMILES CC(=O)N[C@@H](CO)C(=O)N[C@@H](CCCCN)C(=O)N[C@@H](CC(C)C)C(=O)N[C@@H](CCCNC(=N)N)C(=O)c1nc2ccccc2s1) [Ac-SKLR(SEQ ID NO: 10)-Kbt]	Criterion not met
Ac-KRLR-{Kbt-Benzyl‑3‑COOMe} [Ac-KRLR(SEQ ID NO: 8)-kbt-Benzyl-3-COOMe]	Criterion met
